Target: T1, 4H3920-AA
T1 chain: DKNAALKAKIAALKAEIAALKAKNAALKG
Test: two-hybrid library CCmax;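 further: natural log of median RNA to DNA barcode read ratio; higher means stronger binding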
Settings: mean of both orientations
READOUT KIND: interaction score
No unit in the answer, please; the number alone is enough.

Inquiry: Give me measured interaction score, please, for this binder: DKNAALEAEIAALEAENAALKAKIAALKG [4H3102-AA]
Reply text: -1.16

Inquiry: Give me measured interaction score, please, for this binder: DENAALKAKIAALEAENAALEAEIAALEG [4H1809-AA]
Reply text: -0.86

Inquiry: Give me measured interaction score, please, for this binder: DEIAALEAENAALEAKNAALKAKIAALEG [4H189-AA]
Reply text: -1.97
